Test Description: Antagonist activity at guinea pig atrium beta-adrenoceptor assessed as inhibition of isoprenaline-induced effect
Assay type: tissue-based, Cavia porcellus, Cardiac atrium
Measure Name: pA2

[[record]]
molecule = "Cc1cccc(OCC(O)CNC(C)C)c1.Cl (stereo not given)"
measure_name = "pA2"
measurement = 8.76

[[record]]
molecule = "Cc1cccc(OCC(CO)NC(C)C)c1.Cl (stereo not given)"
measure_name = "pA2"
measurement = 5.08

[[record]]
molecule = "COC(CNC(C)C)COc1cccc(C)c1.Cl (stereo not given)"
measure_name = "pA2"
measurement = 5.41

[[record]]
molecule = "COCC(COc1cccc(C)c1)NC(C)C.Cl (stereo not given)"
measure_name = "pA2"
measurement = 4.66

[[record]]
molecule = "Cc1cccc(OCC(CCl)NC(C)C)c1.Cl (stereo not given)"
measure_name = "pA2"
measurement = 4.86

